Biological target: IKKα (Homo sapiens)
Sequence (O15111 whole entry): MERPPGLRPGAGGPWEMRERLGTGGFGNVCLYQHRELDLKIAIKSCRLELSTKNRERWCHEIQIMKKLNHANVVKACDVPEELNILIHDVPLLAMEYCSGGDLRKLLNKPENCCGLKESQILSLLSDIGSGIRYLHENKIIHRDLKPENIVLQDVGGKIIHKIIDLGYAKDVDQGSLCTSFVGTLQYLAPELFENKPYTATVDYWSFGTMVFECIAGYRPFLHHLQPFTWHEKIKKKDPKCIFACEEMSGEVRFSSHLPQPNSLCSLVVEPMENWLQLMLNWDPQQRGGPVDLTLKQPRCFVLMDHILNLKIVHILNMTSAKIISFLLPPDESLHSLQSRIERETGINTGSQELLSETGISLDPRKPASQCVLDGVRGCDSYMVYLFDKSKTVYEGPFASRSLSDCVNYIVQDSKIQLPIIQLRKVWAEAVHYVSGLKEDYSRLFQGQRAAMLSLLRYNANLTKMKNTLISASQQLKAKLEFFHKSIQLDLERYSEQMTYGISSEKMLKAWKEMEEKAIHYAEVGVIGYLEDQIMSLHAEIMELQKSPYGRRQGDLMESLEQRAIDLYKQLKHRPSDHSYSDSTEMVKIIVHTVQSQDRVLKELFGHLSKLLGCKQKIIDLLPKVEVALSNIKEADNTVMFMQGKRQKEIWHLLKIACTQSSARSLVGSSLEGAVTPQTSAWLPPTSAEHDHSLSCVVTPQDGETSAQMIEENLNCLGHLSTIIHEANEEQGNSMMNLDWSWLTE
Experiment: DELFIA kinase assay, IKKα
Settings: DELFIA kinase assay
Test Readout: Ki (nM)

>>> print(df.to_string())
                                   compound  value_observed
0  Cc1ccc(S(=O)(=O)Nc2cccc(-c3cc4c(-c5ccc6[nH]nc(N)c6c5)ccnc4[nH]3)c2)cc1 [Compound 5t]              10
1  Nc1n[nH]c2ccc(-c3ccnc4[nH]c(-c5ccc(OCc6ccccc6)cc5)cc34)cc12 [Compound 5s]              16

a: Nc1n[nH]c2ccc(-c3ccnc4[nH]c(-c5cccc(OCCN6CCOCC6)c5)cc34)cc12 [Compound 5y]
b: COCCC(=O)Nc1cccc(-c2cc3c(-c4ccc5[nH]nc(N)c5c4)ccnc3[nH]2)c1 [Compound 5l]
Lab note: record which item had the higher Ki, a or b . Refer to your chosen item by its label in the answer.
a
(a: 9 nM, b: 6 nM)
